Target: human RORγt ligand binding domain (RORγt LBD) (Homo sapiens (Human))
Sequence (P51449 other isoform, or with tags, fused parts or gaps): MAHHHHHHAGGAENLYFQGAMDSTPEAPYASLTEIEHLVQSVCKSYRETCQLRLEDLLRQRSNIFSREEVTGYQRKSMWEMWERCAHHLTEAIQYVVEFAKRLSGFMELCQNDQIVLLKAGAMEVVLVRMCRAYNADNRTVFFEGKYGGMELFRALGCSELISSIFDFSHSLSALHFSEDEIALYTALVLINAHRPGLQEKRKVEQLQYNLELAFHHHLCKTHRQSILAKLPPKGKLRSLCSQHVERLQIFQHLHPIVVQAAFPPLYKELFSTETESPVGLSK
Test: RORγt ThermoFluor® assay (thermal shift binding)
Conditions: read-out: ThermoFluor® Assay, Kd
pKd: −log10 of the molar value.
Each entry gets NOT MET if its pKd stays under 9, and MET if its pKd is 9 or above.

Req: Tell me whether pKd is at least 9 here: C[C@H](CO)NC(=O)c1nc(C(=O)N2C3CCC2CC3)c(-c2cnc(N[C@@H](C)C(F)(F)F)cc2C(F)F)s1 [Example 226]
Resp: NOT MET

Req: Entry CCC(C)(C)Nc1cc(C(F)(F)F)c(-c2sc(C(=O)NCC(C)(C)O)nc2C(=O)N2CCC[C@@H]2C)cn1 [Example 109] please
Resp: MET

Req: Now consider CC[C@H](Nc1cc(C(F)F)c(-c2sc(C(=O)N3CCOCC3)nc2C(=O)N2CCC[C@@H]2C)cn1)C(F)(F)F [Example 395] .
Resp: NOT MET

Req: Same question, C[C@H](Nc1cc(C(F)F)c(-c2sc(C(=O)N3CC(S(C)(=O)=O)C3)nc2C(=O)N2CCC[C@@H]2C)cn1)C(F)(F)F [Example 450] this time
Resp: NOT MET

Req: What do you have for C[C@H]1CCCN1C(=O)c1nc(C(=O)NCC(O)(C(F)(F)F)C(F)(F)F)sc1-c1cnc(NC(C)(C)C)cc1C(F)F [Example 264] ?
Resp: NOT MET

Req: # repeat for CC[C@H](Nc1cc(C(F)F)c(-c2sc(C(=O)N[C@@H](C)[C@H](C)O)nc2C(=O)N2CCC[C@@H]2C)cn1)C(F)(F)F (relative stereo) [Example 217]
Resp: NOT MET

Req: Note, next up: CC[C@@H](CO)NC(=O)c1nc(C(=O)N2CCC[C@@H]2C)c(-c2cnc(N[C@@H](C)C(F)(F)F)cc2C(F)F)s1 [Example 407]
Resp: NOT MET

Req: Next entry: CC(C)(O)CNC(=O)c1nc(C(=O)N2CCC(F)CC2)c(-c2cnc(NC3CCCCC3)c(C#N)c2C(F)(F)F)s1 [Example 68]
Resp: NOT MET

Req: Same again, this time with CCC(C)(C)Nc1cc(C(F)(F)F)c(-c2sc(C(=O)NCC(C)(C)O)nc2C(=O)N2C3CCC2CC3)cn1 [Example 98]
Resp: MET

Req: Can you check C[C@H]1CCCN1C(=O)c1nc(C(=O)NCC(C)(C)O)sc1-c1cnc(NC(C2CC2)C2CC2)cc1C(F)F [Example 179] next?
Resp: NOT MET

Req: Lookup C[C@H]1CCCN1C(=O)c1nc(C(=O)NC[C@H](O)CO)sc1-c1cnc(NC(C)(C)C)cc1C(F)(F)F [Example 363]
Resp: NOT MET

Req: Now give it for CC[C@H](Nc1cc(C(F)F)c(-c2sc(C(=O)NC3CCOCC3)nc2C(=O)N2CCC[C@@H]2C)cn1)C(F)(F)F [Example 394] too.
Resp: NOT MET

Req: Now consider O=C(N[C@H]1CC[C@H](O)C1)c1nc(C(=O)N2C3CCC2CC3)c(-c2cnc(N[C@@H](C3CC3)C(F)(F)F)cc2C(F)F)s1 [Example 441] .
Resp: MET

Req: And the next one, CC(C)(O)CNC(=O)c1nc(C(=O)N2CCC(F)CC2)c(-c2cnc(NC3CCCCC3)cc2C2CC2)s1 [Example 64] ?
Resp: NOT MET

Req: Note, next up: C[C@H]1CCCN1C(=O)c1nc(C(=O)N[C@H](C)C(C)(C)O)sc1-c1cnc(NCC(C)(C)C)cc1C(F)F [Example 343]
Resp: NOT MET

Req: Okay, and C[C@H](Nc1cc(C(F)F)c(-c2sc(C(=O)N[C@H]3C[C@H](O)C3)nc2C(=O)N2CC(F)(F)C[C@@H]2C)cn1)C(F)(F)F [Example 191] ?
Resp: NOT MET

Req: // next record C[C@H]1CCCN1C(=O)c1nc(C(=O)NCC(C)(C)O)sc1-c1cnc(N[C@H](C)C(F)(F)F)cc1C(F)(F)F [Example 54]
Resp: NOT MET

Req: Another compound to check: C[C@H]1CCCCN1C(=O)c1nc(C(=O)NCC(C)(C)O)sc1-c1cnc(NC2CCCCC2)cc1C(F)F [Example 34]
Resp: MET

Req: Could you do the same for CC[C@@H](Nc1cc(C(F)F)c(-c2sc(C(=O)N[C@H](C)CO)nc2C(=O)N2CCC[C@@H]2C)cn1)C(F)(F)F [Example 206] , please?
Resp: NOT MET

Req: // same read-out, input: CC[C@H](Nc1cc(C(F)F)c(-c2sc(C(=O)NCC(C)(C)O)nc2C(=O)N2C3CCC2CC3)cn1)C1CC1 (stereo in doubt) [Example 163]
Resp: NOT MET

Req: Another compound to look at: C[C@H]1CC(F)(F)CN1C(=O)c1nc(C(=O)N[C@@H]2COC[C@@H]2O)sc1-c1cnc(NC2(C)CCC2)cc1C(F)(F)F (relative stereo) [Example 183]
Resp: MET

Req: Record: C[C@H]1CCCN1C(=O)c1nc(C(=O)NC2(C)COC2)sc1-c1cnc(NC(C)(C)C)cc1C(F)(F)F [Example 253]
Resp: NOT MET

Measured values drawn from patent US10975068B2 for this set.
